Form field: protein stability index (one value per entry).
- TEST_DESCRIPTION: protein stability index of a GFP-peptide fusion (yeast GPS) (PSI 1-4); higher = more stable; sorted into four equal gates, so the index is relative within each strain
- TEST_CONDITIONS: pdr5∆
The answer should be written as a number, with no unit following it.

- SEQUENCE_TEXT: "ITQMRVNDEEEHKQLVA [RPC82]"
  protein stability index: 2.92
- SEQUENCE_TEXT: "GRENFVYANNPEVSDDG [SIR3]"
  protein stability index: 3.08

Attention now shifts to the item below.
Please report protein stability index for the following sequence: DGAGGDNEVQRTMLELI [RPT1]
2.95
